B1: DnaJ homolog subfamily C member 5, residues 16 to 77; numbered along this chain, Q9H3Z4 (parent)
chain: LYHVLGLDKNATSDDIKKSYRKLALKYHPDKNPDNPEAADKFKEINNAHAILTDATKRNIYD

- Variants of: B1
- run description: abundance fitness (aPCA) (normalised: wild type 0, dead -1); higher = more abundant; growth selection in yeast, the domain comes from the species named
- study conditions: Homo sapiens
reported metric: abundance fitness
Give bare numbers.

Past entries and their recorded results:
sequence change	recorded result
L25T	-0.025
F42G	-0.278
K57S	-0.349

For the 3 variants below, give their abundance fitness values.
1. K9W
2. K31P
3. V4I

-0.499
-0.379
-0.054
